Target: vitamin D receptor (VDR) (Bos taurus, UniProt Q28037)
Construct: vitamin D receptor (VDR) derived from calf thymus was evaluated; purchased Yamasa Shoyu Co., Ltd. (Choshi, Chiba, Japan) Lot; No. 111931; host or cells: calf thymus (tissue preparation)
Sequence (Q28037 whole entry): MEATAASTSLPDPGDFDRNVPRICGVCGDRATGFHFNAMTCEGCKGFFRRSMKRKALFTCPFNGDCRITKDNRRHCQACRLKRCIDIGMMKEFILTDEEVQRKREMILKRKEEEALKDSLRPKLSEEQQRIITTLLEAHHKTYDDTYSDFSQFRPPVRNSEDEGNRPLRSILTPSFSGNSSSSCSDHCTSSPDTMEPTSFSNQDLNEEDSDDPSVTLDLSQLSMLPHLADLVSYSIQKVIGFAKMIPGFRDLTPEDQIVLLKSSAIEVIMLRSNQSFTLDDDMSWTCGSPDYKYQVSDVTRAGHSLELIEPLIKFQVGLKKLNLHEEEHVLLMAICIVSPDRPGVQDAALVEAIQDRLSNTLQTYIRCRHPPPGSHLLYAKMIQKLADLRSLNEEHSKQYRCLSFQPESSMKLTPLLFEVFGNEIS
Assay: Binding assay for calf thymus vitamin D receptor (VDR)
Conditions: relative to 1α,25-dihydroxyvitamin D3 = 1; ratio of concentrations for 50% inhibition of [3H]-1α,25-dihydroxyvitamin D3 binding to calf thymus VDR
propertyLabel: VDR affinity (relative binding affinity X=y/x)

molecule	measurementTarget	assayResult
C[C@@H](CCCC(C)(C)O)C1CCC2/C(=C/C=C3C[C@@H](O)C(=CCO)[C@H](O)C3)CCCC21C (stereo partly drawn) [Compound 20-Epi-YI-8a]	vitamin D receptor (VDR) (Bos taurus, UniProt Q28037)	1.6
C[C@@H](CCCC(C)(C)O)C1CCC2/C(=C/C=C3C[C@@H](O)C(OCCO)[C@H](O)C3)CCCC21C (single isomer, unassigned) [Compound 20-Epi-YI-6a]	vitamin D receptor (VDR) (Bos taurus, UniProt Q28037)	1

Problem: # return recorded VDR affinity (relative binding affinity X=y/x) for input CCC1(O)[C@H](O)CC(=C/C=C2\CCCC3(C)C2CCC3[C@@H](C)CCCC(C)(C)O)C[C@H]1O (stereo partly drawn) [Compound 20-Epi-YI-4a]
Result: 1/20

Problem: Consider the molecule COCC1(O)[C@H](O)CC(=C/C=C2\CCCC3(C)C2CCC3[C@@H](C)CCCC(C)(C)O)C[C@H]1O (stereo partly drawn) [Compound 20-Epi-YI-5a] and give its recorded VDR affinity (relative binding affinity X=y/x).
Result: 1/5
